Tested on: MDA-N
ASSAY_EXPLANATION: NCI tumour cell line growth inhibition, 48 h
Activity calls are given as the source filed them. Rule as the data show it: active = GI50 up to about 1.1 µM and inactive = higher.
READOUT_NAME: GI50

{"COMPOUND": "NC1CNC(=O)c2cscc21 (stereo not drawn)", "SYSTEM": "MDA-N", "ENDPOINT_RESULT": "> 100 µM (inactive)"}
{"COMPOUND": "Nc1ccc2nc3ccc(=O)cc-3n(-c3ccccc3)c2c1", "SYSTEM": "MDA-N", "ENDPOINT_RESULT": "> 100 µM (inactive)"}
{"COMPOUND": "CC1(CF)SCc2nc3ccccc3n21 (stereo not drawn)", "SYSTEM": "MDA-N", "ENDPOINT_RESULT": "> 100 µM (inactive)"}

---

System: COLO 205
ASSAY_EXPLANATION: NCI tumour cell line growth inhibition, 48 h
Active and inactive are the calls of the source. Rule as the data show it: active = GI50 up to about 1.1 µM and inactive = higher.

{"COMPOUND": "CCC(=O)C(C(C)/C=C/CCSc1ccccc1)C(O)CCCCCC(=O)OC (stereo not given)", "GI50": "> 100 µM (inactive)"}
{"COMPOUND": "C=CC(=O)N1C/C(=C\\c2ccccc2)C(=O)/C(=C/c2ccccc2)C1", "GI50": "1.83 µM (inactive)"}
{"COMPOUND": "CCOC(=O)c1c(N2CCOCC2)ncn(-c2cccc(Cl)c2)c1=O", "GI50": "> 100 µM (inactive)"}
{"COMPOUND": "COc1ccc(/C=C/C(=O)c2c(-c3ccccc3)nn(C)c(=O)c2N2CCOCC2)cc1", "GI50": "> 100 µM (inactive)"}
{"COMPOUND": "COc1ccc2c(c1)[n+]([O-])c(-c1ccccc1Cl)c(N)[n+]2[O-]", "GI50": "18.5 µM (inactive)"}
{"COMPOUND": "O=C(Nc1nccs1)c1cc2c(cc1Cl)Sc1nccn1S2(=O)=O", "GI50": "16.7 µM (inactive)"}
{"COMPOUND": "CC1=NN(c2nc(N)nc(CBr)n2)C(C)(C)C1", "GI50": "3.03 µM (inactive)"}
{"COMPOUND": "COC(=O)C(C)(/N=C/c1ccccc1)c1ccccc1 (stereo not given)", "GI50": "> 100 µM (inactive)"}
{"COMPOUND": "C=C1C(=O)O[C@@H]2[C@@H]3O[C@@H](C[C@@H]13)[C@](C)(O)CC/C=C(\\C)CCC[C@@H]2C", "GI50": "14.7 µM (inactive)"}
{"COMPOUND": "Cn1c(=O)c2nc(Nc3ccccc3)[nH]c2n(C)c1=O", "GI50": "> 10 µM (inactive)"}

---

The following compounds are shown together with reported GI50 values.
Tested on: SK-MEL-5
ASSAY_EXPLANATION: NCI tumour cell line growth inhibition, 48 h
Calls of active or inactive are those of the source. Cut-off read from the data, not from the text of the source: active = GI50 up to about 1.1 µM and inactive = higher.

{"COMPOUND": "Cc1c(C2Cc3ccccc3N2C(=O)/C=C\\C(=O)O)c2ccccc2n1C (stereo not drawn)", "GI50": "18.2 µM (inactive)"}
{"COMPOUND": "O=C(O)c1ccc(NC(NC(=O)C(C(F)(F)F)C(F)(F)F)(C(F)(F)F)C(F)(F)F)cc1", "GI50": "> 100 µM (inactive)"}
{"COMPOUND": "Clc1ccc(C2=CC(c3ccccc3)N3C(=N[C@H]4CCCC[C@@H]43)N2)cc1 (stereo partly drawn)", "GI50": "1.71 µM (inactive)"}
{"COMPOUND": "COC(=O)CCC1(O)C=CC(=O)C=C1", "GI50": "31.9 µM (inactive)"}
{"COMPOUND": "CSc1ccc2c(cc1=O)[C@@H](NC(=O)c1ccc([N+](=O)[O-])cc1)CCc1cc(O)c(O)c(O)c1-2", "GI50": "18.7 µM (inactive)"}
{"COMPOUND": "Fc1ccc(-c2sc(-c3ccsc3)cc2Cc2ccsc2)cc1", "GI50": "> 10 µM (inactive)"}
{"COMPOUND": "C/C(=C/CNc1ncnc2c1ncn2CCC#N)CO", "GI50": "> 100 µM (inactive)"}
{"COMPOUND": "CCCCCCC(=O)CC(=O)C(=O)Nc1ccccc1C", "GI50": "> 100 µM (inactive)"}
{"COMPOUND": "Cn1cc(C2NC(=O)c3ccccc3N2)c2ccccc21 (stereo not drawn)", "GI50": "0.182 µM (active)"}
{"COMPOUND": "Nc1ccccc1.O=P(O)(OP(=O)(O)c1ccccc1)c1ccccc1", "GI50": "> 100 µM (inactive)"}
{"COMPOUND": "O=c1cc(C(F)(F)F)c2cc3c(cc2o1)NCCC3", "GI50": "78.3 µM (inactive)"}
{"COMPOUND": "CSc1nc(SC)c2c(CO)c(Br)n(Cc3ccccc3)c2n1", "GI50": "48.9 µM (inactive)"}
{"COMPOUND": "NC1=C(NC(=O)Cc2ccc(F)cc2)C(=O)c2ccccc2C1=O", "GI50": "14.4 µM (inactive)"}
{"COMPOUND": "CCN(CC)CCCn1cnc2ncccc2c1=O", "GI50": "> 100 µM (inactive)"}
{"COMPOUND": "CCN(CC)C(=S)SS(=O)(=O)c1ccc(C)cc1", "GI50": "0.644 µM (active)"}
{"COMPOUND": "Cn1/c(=N\\S(=O)(=O)c2ccccc2)[nH]c2ccccc21", "GI50": "> 100 µM (inactive)"}
{"COMPOUND": "Cc1ccc(C(=O)N/N=C(\\N=N\\c2ccccc2)c2ccc(N(C)C)cc2)cc1", "GI50": "92 µM (inactive)"}
{"COMPOUND": "CC(=O)N(C(C)=O)n1c(Cc2ccc(Cl)cc2)n[nH]c1=O", "GI50": "> 100 µM (inactive)"}
{"COMPOUND": "CCCCCCCCCCCCCCCCOCC(Cl)COP(=O)(O)OP(=O)(O)OCC1OC(n2cc(C)c(=O)[nH]c2=O)CC1O (stereo not drawn)", "GI50": "> 100 µM (inactive)"}
{"COMPOUND": "CC(=O)Nc1ncc2c(n1)-c1ccccc1OC2c1ccccc1 (stereo not drawn)", "GI50": "> 100 µM (inactive)"}
{"COMPOUND": "CNC(=O)CN1CC(=O)N(C)C(=O)C1", "GI50": "> 100 µM (inactive)"}
{"COMPOUND": "NC1CNC(=O)c2cscc21 (stereo not drawn)", "GI50": "> 100 µM (inactive)"}
{"COMPOUND": "CCOC(=O)c1sc2nc(SC)nc(Nc3ccc4c(c3)OCCO4)c2c1N", "GI50": "7.53 µM (inactive)"}

---

The following compounds are shown together with reported GI50 values.
Tested on: M19-MEL
ASSAY_EXPLANATION: NCI tumour cell line growth inhibition, 48 h
Calls of active or inactive are those of the source. Rule as the data show it: active = GI50 up to about 1.1 µM and inactive = higher.

{"COMPOUND": "O=[N+]([O-])c1cccc(C2N3CCCCC3[C@@H]3c4[nH]c5ccccc5c4CCN23)c1 (stereo partly specified)", "GI50": "11.9 µM (inactive)"}
{"COMPOUND": "COc1ccc(C(=O)CC(=O)C(=O)Nc2ccc(C)c(C)c2)cc1", "GI50": "> 100 µM (inactive)"}
{"COMPOUND": "COC1C(OC(=S)Nc2ccccc2)c2ccccc2N1C(C)=O (stereo unspecified)", "GI50": "> 100 µM (inactive)"}
{"COMPOUND": "C[Si](C)(C)C#C[I+]c1ccccc1", "GI50": "31.6 µM (inactive)"}
{"COMPOUND": "C/C(=N/OCCC(=O)O)C1CC1", "GI50": "> 100 µM (inactive)"}
{"COMPOUND": "COc1cc(/C=C2\\C(=O)N(C(=O)c3ccc(NC(C)=O)cc3)N=C2C)ccc1O", "GI50": "> 100 µM (inactive)"}
{"COMPOUND": "C=CC(=O)N1C/C(=C\\c2ccccc2)C(=O)/C(=C/c2ccccc2)C1", "GI50": "0.979 µM (active)"}
{"COMPOUND": "O=C1c2ccccc2N2OC3C4CCC(C4)C3C12c1ccccc1 (stereo unspecified)", "GI50": "93.1 µM (inactive)"}
{"COMPOUND": "Cn1c(O)c(C(=O)Nc2ccc([N+](=O)[O-])cc2)c(=O)n(C)c1=S", "GI50": "3.69 µM (inactive)"}
{"COMPOUND": "O=[N+]([O-])c1ccc(-n2nnc(C3=NCCN3)c2-c2ccc(Cl)cc2)cc1", "GI50": "> 100 µM (inactive)"}
{"COMPOUND": "C=C(C)[C@H]1CC[C@@]2(C)C(C1)[C@H](C)CC[C@@H]2O (stereo partly specified)", "GI50": "> 100 µM (inactive)"}

---

Tested on: HCT-116
ASSAY_EXPLANATION: NCI tumour cell line growth inhibition, 48 h
Calls of active or inactive are those of the source. No stated cut-off is given here; in the data, active = GI50 up to about 1.1 µM and inactive = higher.
Possible outcomes: active, inactive

{"COMPOUND": "CC(C)(C)OC(=O)N1N=NC2C3OC(CC3=O)C21 (configuration not stated)", "SYSTEM": "HCT-116", "GROUP": "inactive"}
{"COMPOUND": "CCC(=O)OC[n+]1ccc2c(C)c3[nH]c4ccccc4c3c(C)c2c1", "SYSTEM": "HCT-116", "GROUP": "active"}
{"COMPOUND": "C=CCNC1=NC(=O)C(CC(=O)Nc2ccc([N+](=O)[O-])cc2[N+](=O)[O-])S1 (configuration not stated)", "SYSTEM": "HCT-116", "GROUP": "inactive"}
{"COMPOUND": "OCCCNCc1ccccn1", "SYSTEM": "HCT-116", "GROUP": "inactive"}
{"COMPOUND": "CSc1nnc(SC)nn1", "SYSTEM": "HCT-116", "GROUP": "inactive"}
{"COMPOUND": "Cc1cn(C2CC(ON3C(=O)c4ccccc4C3=O)C(CO)O2)c(=O)[nH]c1=O (configuration not stated)", "SYSTEM": "HCT-116", "GROUP": "inactive"}
{"COMPOUND": "Cc1sc(C)c2c1C(=O)CC2N (configuration not stated)", "SYSTEM": "HCT-116", "GROUP": "inactive"}
{"COMPOUND": "S=C(Nc1ccc(/N=N/c2ccccc2)cc1)SCc1ccccc1", "SYSTEM": "HCT-116", "GROUP": "inactive"}
{"COMPOUND": "CC1(C)S[C@H](c2ccccc2C(=O)O)N[C@@H]1CC(=O)O", "SYSTEM": "HCT-116", "GROUP": "inactive"}
{"COMPOUND": "CSC1=Nc2ccccc2N=C(c2ccccc2)C1", "SYSTEM": "HCT-116", "GROUP": "inactive"}
{"COMPOUND": "Nc1c(-c2ccc(Br)cc2)[n+]([O-])c2ccccc2[n+]1[O-]", "SYSTEM": "HCT-116", "GROUP": "inactive"}
{"COMPOUND": "O=C(Nc1ccc(Cl)cc1Cl)c1cc2nc3ccccc3c(=O)n2c2ccccc12", "SYSTEM": "HCT-116", "GROUP": "inactive"}
